So I've got a bunch of binders here, and I need their fold repression values.
# system-tested: T1, ECF15_436
# T1 chain: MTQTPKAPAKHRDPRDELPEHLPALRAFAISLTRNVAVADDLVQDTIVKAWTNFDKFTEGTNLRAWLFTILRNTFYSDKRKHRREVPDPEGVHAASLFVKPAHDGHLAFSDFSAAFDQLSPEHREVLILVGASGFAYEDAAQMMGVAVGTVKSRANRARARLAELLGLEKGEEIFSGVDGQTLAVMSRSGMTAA
One number for each entry.

See these solved cases before continuing.
| binder | fold repression |
| --- | --- |
| AS31_34 (protein) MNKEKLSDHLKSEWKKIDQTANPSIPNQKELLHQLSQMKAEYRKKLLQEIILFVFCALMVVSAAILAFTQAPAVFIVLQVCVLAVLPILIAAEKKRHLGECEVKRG | 2.54 |
| AS22_1147 (protein) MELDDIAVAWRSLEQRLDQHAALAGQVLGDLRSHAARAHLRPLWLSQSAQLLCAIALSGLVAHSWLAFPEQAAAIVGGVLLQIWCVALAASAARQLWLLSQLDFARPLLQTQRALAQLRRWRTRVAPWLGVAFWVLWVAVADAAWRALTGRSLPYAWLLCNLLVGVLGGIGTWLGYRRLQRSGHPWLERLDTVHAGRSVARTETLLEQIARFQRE | 3.01 |
| AS01_3473 (protein) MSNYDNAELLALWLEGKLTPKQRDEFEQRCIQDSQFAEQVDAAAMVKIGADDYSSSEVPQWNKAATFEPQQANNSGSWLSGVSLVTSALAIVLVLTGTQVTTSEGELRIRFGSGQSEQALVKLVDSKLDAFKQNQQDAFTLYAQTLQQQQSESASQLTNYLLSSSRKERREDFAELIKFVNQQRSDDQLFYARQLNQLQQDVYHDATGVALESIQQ | 1.94 |

For every item below, please supply its fold repression.
1. AS16_973 (protein) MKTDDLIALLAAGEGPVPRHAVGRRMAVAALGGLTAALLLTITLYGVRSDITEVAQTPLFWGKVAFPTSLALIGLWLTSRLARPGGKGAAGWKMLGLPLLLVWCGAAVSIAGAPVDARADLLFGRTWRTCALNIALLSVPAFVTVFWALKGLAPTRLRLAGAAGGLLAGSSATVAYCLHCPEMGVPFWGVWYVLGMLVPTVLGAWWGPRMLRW
2. AS20_992 (protein) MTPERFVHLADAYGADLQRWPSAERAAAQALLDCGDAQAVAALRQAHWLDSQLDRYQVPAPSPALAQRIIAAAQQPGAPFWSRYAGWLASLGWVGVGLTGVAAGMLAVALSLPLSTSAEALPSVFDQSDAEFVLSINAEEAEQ

1: 0.884; 2: 1.32
